Would you mind telling me the reported HDL of each entry?
assay: Plasma cholesterol and triglyceride levels in huCETP transgenic mice (Example 5); type: in vivo; details: plasma, 50 mg/kg i.p. twice per week, week 3
e = 2'-O-(2-methoxyethyl) (MOE); d = 2'-deoxy (DNA)
Just so you know, I need the unit written after the number.

Record HDL per entry; entries follow.
1. ISIS 349515: 5-10-5 MOE gapmer AACTTCCACCACGCTGGAGG (sugars from the 5' end e5 d10 e5, backbone and methylation of C not given here)
2. ISIS 349511: 5-10-5 MOE gapmer CCCGACCTCCTTGGAGACTT (sugars from the 5' end e5 d10 e5, backbone and methylation of C not given here)
3. ISIS 349512: 5-10-5 MOE gapmer TTGCCTTCTGCTACAAGCCC (sugars from the 5' end e5 d10 e5, backbone and methylation of C not given here)

### Response
["60 mg/dL", "60 mg/dL", "62 mg/dL"]

### Prompt What does the record list as HDL for ISIS 349517: 5-10-5 MOE gapmer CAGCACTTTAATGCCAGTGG (sugars from the 5' end e5 d10 e5, backbone and methylation of C not given here) ?
### Response 59 mg/dL
